Values from patent US20020013306A1

- System: CH1dox^R human ovarian carcinoma cell line (doxorubicin resistant)
- experimental_protocol: 96 h growth inhibition, sulforhodamine B assay, CH1doxR
- Format: cell-based
- settings: 96 h exposure; growth inhibition
pIC50: −log10 of the molar value.
Param threshold (5) applies to pIC50; output 1 when value >= threshold, -1 when value < threshold.

| compound | class_label |
| --- | --- |
| F[B-](F)(F)F.F[B-](F)(F)F.OCc1cc[n+]([Pt-2]23[n+]4ccccc4-c4cccc([n+]42)-c2cccc[n+]23)cc1 [Compound A9] | 1 |
| CN(NC(=O)CCCCC(=O)NN(C)c1cc(-c2ccccn2)nc(-c2ccccn2)c1)c1cc(-c2ccccn2)nc(-c2ccccn2)c1.Cc1ccncc1.Cc1ccncc1.F[B-](F)(F)F.F[B-](F)(F)F.F[B-](F)(F)F.F[B-](F)(F)F.[Pt+2].[Pt+2] [W] | -1 |
| F[B-](F)(F)F.F[B-](F)(F)F.c1cc[n+]2c(c1)-c1cccc3[n+]1[Pt-2]2([n+]1ccsc1)[n+]1ccccc1-3 [Compound A6] | 1 |
| Cc1ccncc1.F[B-](F)(F)F.F[B-](F)(F)F.[Pt+2].c1ccc(-c2cc(N3CC3)cc(-c3ccccn3)n2)nc1 [T] | 1 |
| Cc1cc[n+]([Pt-2]23[n+]4ccccc4-c4cc(-c5ccc(Br)cc5)cc([n+]42)-c2cccc[n+]23)cc1.F[B-](F)(F)F.F[B-](F)(F)F [Q] | 1 |
| CC(=O)c1cc[n+]([Pt-2]23[n+]4ccccc4-c4cccc([n+]42)-c2cccc[n+]23)cc1.F[B-](F)(F)F.F[B-](F)(F)F [Compound A2] | 1 |
| Cc1ccncc1.F[B-](F)(F)F.F[B-](F)(F)F.[Pt+2].c1ccc(-c2cccc(-c3ccccn3)n2)nc1 [A] | 1 |
| Cc1cc[n+]([Pt-2]23[n+]4ccccc4-c4cc(Cl)cc([n+]42)-c2cccc[n+]23)cc1.F[B-](F)(F)F.F[B-](F)(F)F [I] | 1 |
| F[B-](F)(F)F.F[B-](F)(F)F.[NH3+][Pt-2]12[n+]3ccccc3-c3cccc([n+]31)-c1cccc[n+]12 [Compound A12] | 1 |
| [Cl-].[Cl-].[Pt+2].c1ccc(-c2cccc(-c3ccccn3)n2)nc1 [Compound A13] | 1 |
| CN(N)c1cc(-c2ccccn2)nc(-c2ccccn2)c1.Cc1ccncc1.F[B-](F)(F)F.F[B-](F)(F)F.[Pt+2] [S] | -1 |

---

- System: CH1dox^R human ovarian carcinoma cell line (doxorubicin resistant)
- experimental_protocol: 96 h growth inhibition, sulforhodamine B assay, CH1doxR
- Type: cell-based
- settings: 96 h exposure; growth inhibition
property_name: IC50

| compound | assayed_target | obs_value |
| --- | --- | --- |
| F[B-](F)(F)F.F[B-](F)(F)F.Fc1ccc[n+]([Pt-2]23[n+]4ccccc4-c4cccc([n+]42)-c2cccc[n+]23)c1 [Compound A5] | CH1dox^R human ovarian carcinoma cell line (doxorubicin resistant) | 6.1 µM |
| Cc1ccncc1.Cc1ccncc1.F[B-](F)(F)F.F[B-](F)(F)F.F[B-](F)(F)F.F[B-](F)(F)F.O=C(CCCCC(=O)NNc1cc(-c2ccccn2)nc(-c2ccccn2)c1)NNc1cc(-c2ccccn2)nc(-c2ccccn2)c1.[Pt+2].[Pt+2] [V] | CH1dox^R human ovarian carcinoma cell line (doxorubicin resistant) | 40 µM |
| CN(C)c1cc[n+]([Pt-2]23[n+]4ccccc4-c4cccc([n+]42)-c2cccc[n+]23)cc1.F[B-](F)(F)F.F[B-](F)(F)F [Compound A3] | CH1dox^R human ovarian carcinoma cell line (doxorubicin resistant) | 3.95 µM |
| Cc1ccncc1.F[B-](F)(F)F.F[B-](F)(F)F.NNc1cc(-c2ccccn2)nc(-c2ccccn2)c1.[Pt+2] [R] | CH1dox^R human ovarian carcinoma cell line (doxorubicin resistant) | 5.3 µM |
| F[B-](F)(F)F.F[B-](F)(F)F.Fc1cccc[n+]1[Pt-2]12[n+]3ccccc3-c3cccc([n+]31)-c1cccc[n+]12 [Compound A4] | CH1dox^R human ovarian carcinoma cell line (doxorubicin resistant) | 5.4 µM |
| Brc1cc[n+]([Pt-2]23[n+]4ccccc4-c4cccc([n+]42)-c2cccc[n+]23)cc1.F[B-](F)(F)F.F[B-](F)(F)F [Compound A1] | CH1dox^R human ovarian carcinoma cell line (doxorubicin resistant) | 0.85 µM |
